These measurements were taken from patent US9725449B2.

Please go through the items and note down their IC50.
Target: BRD4 (Homo sapiens, UniProt O60885)
Assay: Time resolved fluorescence resonance energy transfer (TR-FRET) binding assay, bromodomain BRD4
Conditions: one of the FRET assays described; read-out: FRET BRD4 IC50

Ask: Query: IC50; subject: Cc1nnn(C)c1-c1cnc2c3ccc(N4CCN(S(C)(=O)=O)CC4)nc3n([C@H](c3ccccc3)C3CCOCC3)c2c1 [Example 188]
Reply: < 0.001 µM

Ask: Query: IC50; subject: [2H]C([2H])([2H])N1CCN(c2ncc3c4ncc(-c5c(C)nnn5C)cc4n([C@H](c4ccccc4)C4CCOCC4)c3n2)CC1 [Example 156]
Reply: < 0.01 µM

Ask: Query: IC50; subject: [2H]C([2H])([2H])C(=O)c1cc2c(cn1)c1ncc(-c3c(C)noc3C)cc1n2[C@H](c1ccc(F)cc1)C1CCOCC1 [Example 223]
Reply: < 0.01 µM

Ask: Query: IC50; subject: Cc1nnn(C)c1-c1cnc2c3c(OCC4CC4)ncc(S(C)(=O)=O)c3n([C@H](c3ccccc3)C3CCOCC3)c2c1 [Example 101]
Reply: < 0.01 µM

Ask: Query: IC50; subject: [2H]C([2H])([2H])c1nnn(C)c1-c1cnc2c3cnc(Cl)cc3n(C(c3ncccc3F)C3CCOCC3)c2c1 (single isomer, unassigned) [Example 320]
Reply: < 1.5 µM

Ask: Query: IC50; subject: [2H]C([2H])([2H])c1nnn(C)c1-c1cnc2c3c(NCC(F)F)nccc3n([C@H](c3ccccc3)C3CCOCC3)c2c1 [Example 133]
Reply: < 0.001 µM
